TARGET_DESC: Recombinant human Bcl-xL with a 25 amino acid truncation of its C-terminus (human) (UniProt Q07817)
Sequence (Q07817 1-208): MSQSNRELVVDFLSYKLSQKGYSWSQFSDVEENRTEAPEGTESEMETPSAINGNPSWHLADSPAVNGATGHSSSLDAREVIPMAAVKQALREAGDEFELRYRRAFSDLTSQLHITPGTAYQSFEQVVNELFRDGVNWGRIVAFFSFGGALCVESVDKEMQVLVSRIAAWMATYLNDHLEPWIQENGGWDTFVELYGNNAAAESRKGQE
MEASUREMENT_PROTOCOL: competition phage ELISA
We begin with a simple list: items and their reported Fold/wt.
ASSAY_READOUT: Fold/wt (fold)

- BINDER: "PSSTMGQVGRQLAAIGDDINRRYDSE [Bak BH3 I14A, phage-displayed]"
  ASSAY_READOUT: "Fold/wt"
  UNITS_TEXT: "fold"
  RESULT_QUALIFIER: "="
  EXPERIMENTAL_VALUE: 1
- BINDER: "QEDIIRNIARHLAQVGDAMDRSIPPG [Bid BH3 S18A, phage-displayed]"
  ASSAY_READOUT: "Fold/wt"
  UNITS_TEXT: "fold"
  RESULT_QUALIFIER: "="
  EXPERIMENTAL_VALUE: 1
- BINDER: "PSSAMGQVGRQLAIIGDDINRRYDSE [Bak BH3 T4A, phage-displayed]"
  ASSAY_READOUT: "Fold/wt"
  UNITS_TEXT: "fold"
  RESULT_QUALIFIER: "="
  EXPERIMENTAL_VALUE: 1
- BINDER: "PSSTMEQVGRQLAIIGDDINRRYDSE [Bak BH3 G6E, phage-displayed]"
  ASSAY_READOUT: "Fold/wt"
  UNITS_TEXT: "fold"
  RESULT_QUALIFIER: "<"
  EXPERIMENTAL_VALUE: 1
- BINDER: "PSSTMGQVGRQLAIIGDDINRRYDAE [Bak BH3 S25A, phage-displayed]"
  ASSAY_READOUT: "Fold/wt"
  UNITS_TEXT: "fold"
  RESULT_QUALIFIER: "="
  EXPERIMENTAL_VALUE: 1
- BINDER: "QEDIIRNIAAHLAQVGDSMDRSIPPG [Bid BH3 R10A, phage-displayed]"
  ASSAY_READOUT: "Fold/wt"
  UNITS_TEXT: "fold"
  RESULT_QUALIFIER: "="
  EXPERIMENTAL_VALUE: 2
- BINDER: "QEDIIRNIARHLAQVGDSMDRSIPPG [Bid BH3 wild type, phage-displayed]"
  ASSAY_READOUT: "Fold/wt"
  UNITS_TEXT: "fold"
  RESULT_QUALIFIER: "="
  EXPERIMENTAL_VALUE: 1
- BINDER: "QEDIIRNIARHLAQVGDSMDRSAPPG [Bid BH3 I23A, phage-displayed]"
  ASSAY_READOUT: "Fold/wt"
  UNITS_TEXT: "fold"
  RESULT_QUALIFIER: "="
  EXPERIMENTAL_VALUE: 1
- BINDER: "PSSTMGQVGRQLAIIGDDIARRYDSE [Bak BH3 N20A, phage-displayed]"
  ASSAY_READOUT: "Fold/wt"
  UNITS_TEXT: "fold"
  RESULT_QUALIFIER: "="
  EXPERIMENTAL_VALUE: 2
- BINDER: "NLWAAQRYGRELRRMSDEFVDSAKKG [Bad BH3 F23A, phage-displayed]"
  ASSAY_READOUT: "Fold/wt"
  UNITS_TEXT: "fold"
  RESULT_QUALIFIER: "="
  EXPERIMENTAL_VALUE: 2
- BINDER: "QEDIIRNIARHLAQVGDSMDRSIPPE [Bid BH3 G26E, phage-displayed]"
  ASSAY_READOUT: "Fold/wt"
  UNITS_TEXT: "fold"
  RESULT_QUALIFIER: "="
  EXPERIMENTAL_VALUE: 2
- BINDER: "QEDIARNIARHLAQVGDSMDRSIPPG [Bid BH3 I5A, phage-displayed]"
  ASSAY_READOUT: "Fold/wt"
  UNITS_TEXT: "fold"
  RESULT_QUALIFIER: "="
  EXPERIMENTAL_VALUE: 2
- BINDER: "QEDIIRNIARHLAAVGDSMDRSIPPG [Bid BH3 Q14A, phage-displayed]"
  ASSAY_READOUT: "Fold/wt"
  UNITS_TEXT: "fold"
  RESULT_QUALIFIER: "="
  EXPERIMENTAL_VALUE: 1
- BINDER: "NLWAAQRYGRELRRMSDEFADSFKKG [Bad BH3 V20A, phage-displayed]"
  ASSAY_READOUT: "Fold/wt"
  UNITS_TEXT: "fold"
  RESULT_QUALIFIER: "="
  EXPERIMENTAL_VALUE: 1
